Where do these numbers come from? They come from PubChem BioAssay (NCI).

system: MOLT-4 leukemia; assay: NCI-60 one-dose screen, 48 h; conditions: 10 µM
This is part of a sample that, as a whole, favours compounds with a hit. Of some 83,000 tested, about 20% had one in any assay. Activity calls are given as the source filed them. The calls were made as follows: active = growth percent below 10; inactive = the rest.
Output constraint: value belongs to true (1) (active), false (0) (inactive)

Worked set:
molecule: COc1cc(C(=O)/C=C/c2c[nH]c3ccccc23)cc(OC)c1OC
cat: false (0)

molecule: CCn1c(SCCc2ccccc2)nnc1-c1nn(-c2ccc(Cl)cc2Cl)c(-c2ccc(Cl)cc2)c1C
cat: false (0)

molecule: CCN(CC)CCOc1ccc2c(c1O)C(=O)c1ccccc1C2=O
cat: false (0)

molecule: CNC(=O)c1cc(Oc2ccc3c(c2)sc2nc(-c4ccc(NC(=O)Nc5ccc(Cl)c(C(F)(F)F)c5)cc4)cn23)ccn1
cat: false (0)

molecule: CC(=O)Nc1cc2c(cc1Cl)Cc1cc(Cl)ccc1-2
cat: false (0)

molecule: O=C1CCn2c1c(O)c1ccccc1c2=O
cat: false (0)

What is the recorded call for this molecule in the test? COc1ccc(N=Nc2cc(OC)c(OC)c(OC)c2)cc1
false (0)

// outcome(item) with item = O=C1c2ccccc2C(=O)c2c1ccc(C(Br)Br)c2[N+](=O)[O-]
true (1)

What is the recorded call for this molecule in the test? COc1cc(C2C(C#N)=C(N)Oc3cc(O)ccc32)cc(OC)c1OC (configuration not stated)
true (1)

Which result was noted for this molecule in the test: CC(=O)Nc1ccc(CC[C@H]2CCC/C=C/[C@@H]3C[C@H](O)C[C@H]3[C@H](O)/C=C/C(=O)O2)cc1
true (1)

Which outcome was assigned to C=CCSC(CC)(CC)C(=O)NC in this test?
false (0)

Lab log entry: CCOC(=O)/C(=C(\C)N)C1CC(=O)NC1=O (configuration not stated) — outcome as called in the assay?
false (0)

Give the logged outcome of this assay for the following molecule: Cc1ccc(C(=O)/C=C/c2ccccc2)s1
false (0)

Test call for this molecule, please: O=C(Nc1ccc(F)cc1)c1cc2ccccc2cc1O
false (0)

Status in this test for O=C(Nc1cccc2c1CCCC2)c1cc2ccccc2cc1O ?
false (0)

Kindly provide the recorded test outcome for the following molecule: CCOC(=O)CC(S(=O)(=O)c1ccccc1)S(=O)(=O)c1ccccc1
false (0)

In this assay, the call recorded for COc1nc2c(c(=O)n1C)CN(c1ccccc1)C(=O)C(C)N2 (configuration not stated) was what?
false (0)

* * *

# key: entry, value: growth
system: MCF7 breast; assay: NCI-60 one-dose screen, 48 h (100 = growth as untreated, 0 = no growth, -100 = all killed); conditions: 10 µM
About 83,000 compounds went through this panel and 20% of them were active in at least one assay; those are over-represented in the sample as a whole.
Answer format: numeric, % implied, no suffix.

compound: Cc1ccc(C2NC(=S)N3C(c4ccc(C)cc4)NC(=S)N23)cc1 (centres undefined)
system_name: MCF7 breast
reading: 10.5
--
compound: COc1cc2c3c(n(C4CCN(C)CC4)c(=O)c2cc1OC)-c1cc2c(cc1C3=O)OCO2
system_name: MCF7 breast
reading: 24.8
--
compound: CC(C)(C)OC(=O)CC(S(=O)(=O)c1ccccc1)S(=O)(=O)c1ccccc1
system_name: MCF7 breast
reading: 97

What measured growth is associated with CCC(c1ccc(OC)cc1)C(CC)c1ccc(O)c(CN2CCN(C)CC2)c1 (centres undefined) on MCF7 breast?
50.9

What measured growth is associated with CCOC(=O)Cn1c(=O)c2sc3ncccc3c2n2nnc(-c3ccccc3)c12 on MCF7 breast?
79.8

Provide value of growth for this record tested with MCF7 breast: CC(CN(C)C)Oc1ccccc1NC1=C(Cl)C(=O)C(Nc2ccccc2OC(C)CN(C)C)=C(Cl)C1=O (centres undefined)
-47
